target: hH3R (Homo sapiens); experiment: Competition binding of non-labeled ligands with trans-[3H]3f on hH3R-expressing cell homogenates
Sequence (Q9Y5N1 whole entry): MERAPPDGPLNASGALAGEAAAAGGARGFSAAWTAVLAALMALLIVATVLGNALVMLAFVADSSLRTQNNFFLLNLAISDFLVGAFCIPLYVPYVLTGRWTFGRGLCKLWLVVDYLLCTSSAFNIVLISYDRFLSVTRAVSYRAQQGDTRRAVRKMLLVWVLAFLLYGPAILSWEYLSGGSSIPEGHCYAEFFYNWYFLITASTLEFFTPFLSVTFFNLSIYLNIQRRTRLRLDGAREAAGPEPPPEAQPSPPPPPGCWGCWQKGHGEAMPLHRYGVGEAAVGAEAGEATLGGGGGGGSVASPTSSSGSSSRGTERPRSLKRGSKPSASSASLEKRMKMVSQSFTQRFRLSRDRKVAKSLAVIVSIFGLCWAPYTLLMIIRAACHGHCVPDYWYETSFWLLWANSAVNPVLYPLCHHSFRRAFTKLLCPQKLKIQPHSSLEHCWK
pKi: −log10 of the molar value.

COMPOUND	MEASURED ON	pKi
c1nc(CC2CCNCC2)c[nH]1 [immepip, reference compound]	hH3R (Homo sapiens)	8.50
